Reference source: the MegaScale stability set (Tsuboyama et al. 2023)

B1: HEEH_KT_rd6_0007 (parent)
chain: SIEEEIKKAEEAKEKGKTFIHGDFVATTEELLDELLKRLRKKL

Variants of: B1
assay.info: folding stability dG (cDNA display proteolysis); higher = more stable
test.parameters: PBS, room temperature
readout.kind: folding stability dG (kcal/mol)

1) D33P -0.325
2) K15Q 1.4
3) H21Q 1.03
4) K41D 1.1
5) A26W 1.24
6) T27W 1.66
7) K13T 0.5
8) L43Y 0.992
9) L35K 0.309
10) E14N 1.21
11) T28N 1.09
12) L31W 0.95
13) L43D 0.207
14) I2P 0.683
15) K42R 1.34
16) F24L 0.965
17) K7H 1.06
18) K17R 1.13
19) K13N 0.575
20) L43W 1.06
21) G22Y 1.23
22) E29S 1.46
